- Test system: Coxsackievirus B4
- ASSAY_NOTES: Antiviral activity against Coxsackie virus B4 in human HeLa cells assessed as inhibition of virus-induced cytopathogenicity
- Assay type: functional
- CONDITION_NOTES: Enterovirus B
Reported MIC values are given for each entry in this list.
EXPERIMENTAL_READOUT: MIC

| MOLECULE | RESULT |
| --- | --- |
| S=C(Nc1ccc(Cl)cc1)Nc1ccc(-c2n[nH]c(=S)n2-c2ccccc2)cc1 | > 16 µg/mL |
| CCCCCCNC(=S)Nc1ccc(-c2n[nH]c(=S)n2C)cc1 | > 16 µg/mL |
| C=CCNC(=S)Nc1ccc(-c2n[nH]c(=S)n2C)cc1 | > 80 µg/mL |
| CCNC(=S)Nc1ccc(OCc2n[nH]c(=S)n2C)cc1 | > 80 µg/mL |
| CCCCCCNC(=S)Nc1ccc(-c2n[nH]c(=S)n2CCCCCC)cc1 | > 3.2 µg/mL |
| C=CCNC(=S)Nc1ccc(-c2n[nH]c(=S)n2CC=C)cc1 | > 80 µg/mL |
| C=CCNC(=S)Nc1ccc(-c2n[nH]c(=S)n2CCc2ccccc2)cc1 | > 80 µg/mL |
| CCCCCCNC(=S)Nc1ccc(-c2n[nH]c(=S)n2-c2ccccc2)cc1 | > 80 µg/mL |
| C=CCn1c(-c2ccc(NC(=S)Nc3ccccc3)cc2)n[nH]c1=S | > 80 µg/mL |
| Nc1ncnc2c1ncn2C[C@H](O)CO [(S)-DHPA] | > 400 µg/mL |

---

Below, each of the compounds is paired with its reported Activity value.
- Tested on: Vero
- ASSAY_NOTES: Cytotoxicity against african green monkey Vero cells
- Type: cell-based
- CONDITION_NOTES: chlorocebus sabaeus

| COMPOUND | ASSAY_TARGET | RELATIONAL_OPERATOR | Activity (µg/mL) |
| --- | --- | --- | --- |
| Cn1c(COc2ccc(N)cc2)n[nH]c1=S | Vero | = | 16 |
| C=CCNC(=S)Nc1ccc(-c2nnc(SCc3ccc(Cl)cc3Cl)n2C)cc1 | Vero | = | 80 |
| C=CCn1c(COc2ccc(NC(=S)NC)cc2)n[nH]c1=S | Vero | = | 400 |
| CNC(=S)Nc1ccc(OCc2n[nH]c(=S)n2-c2ccccc2)cc1 | Vero | = | 400 |
| CCNC(=S)Nc1ccc(-c2n[nH]c(=S)n2C)cc1 | Vero | = | 400 |
| CCCCCCNC(=S)Nc1ccc(-c2n[nH]c(=S)n2-c2ccccc2)cc1 | Vero | = | 400 |
| S=C(Nc1ccccc1)Nc1ccc(-c2n[nH]c(=S)n2-c2ccccc2)cc1 | Vero | = | 80 |
| CNC(=S)Nc1ccc(-c2nnc(SCc3ccccc3)n2C)cc1 | Vero | = | 80 |
| C=CCNC(=S)Nc1ccc(-c2n[nH]c(=S)n2C)cc1 | Vero | = | 400 |
| C=CCNC(=S)Nc1ccc(OCc2n[nH]c(=S)n2-c2ccccc2)cc1 | Vero | = | 400 |
| CCCCCCNC(=S)Nc1ccc(-c2n[nH]c(=S)n2CC)cc1 | Vero | = | 400 |
| CCCCCCNC(=S)Nc1ccc(-c2n[nH]c(=S)n2CCCCCC)cc1 | Vero | = | 16 |
| C=CCn1c(COc2ccc(N)cc2)n[nH]c1=S | Vero | = | 400 |
| C=CCn1c(COc2ccc(NC(=S)Nc3ccccc3)cc2)n[nH]c1=S | Vero | = | 80 |
| C=CCn1c(COc2ccc(NC(=S)NCC)cc2)n[nH]c1=S | Vero | = | 400 |
| NC(=O)c1ncn([C@@H]2O[C@H](CO)[C@@H](O)[C@H]2O)n1 | Vero | > | 400 |
| C=CCNC(=S)Nc1ccc(OCc2n[nH]c(=S)n2C)cc1 | Vero | = | 400 |
| C=CCNC(=S)Nc1ccc(OCc2n[nH]c(=S)n2CC=C)cc1 | Vero | = | 400 |
| Cn1c(COc2ccc(NC(=S)Nc3ccccc3)cc2)n[nH]c1=S | Vero | = | 400 |
| Cn1c(-c2ccc(NC(=S)Nc3ccccc3)cc2)n[nH]c1=S | Vero | = | 400 |
| CNC(=S)Nc1ccc(-c2n[nH]c(=S)n2C)cc1 | Vero | = | 400 |
| C=CCNC(=S)Nc1ccc(OCc2n[nH]c(=S)n2CC)cc1 | Vero | = | 400 |
| CCNC(=S)Nc1ccc(OCc2n[nH]c(=S)n2CC)cc1 | Vero | = | 400 |
| CCNC(=S)Nc1ccc(OCc2n[nH]c(=S)n2-c2ccccc2)cc1 | Vero | = | 400 |
| Nc1ccc(OCc2n[nH]c(=S)n2-c2ccccc2)cc1 | Vero | = | 400 |
| O=c1[nH]c(=O)n([C@H]2C[C@H](O)[C@@H](CO)O2)cc1/C=C/Br | Vero | > | 400 |
| C=CCn1c(-c2ccc(NC(=S)Nc3ccccc3)cc2)n[nH]c1=S | Vero | = | 80 |
| CCCCCCNC(=S)Nc1ccc(-c2n[nH]c(=S)n2C)cc1 | Vero | = | 80 |
| CCNC(=S)Nc1ccc(OCc2n[nH]c(=S)n2C)cc1 | Vero | = | 400 |
| CNC(=S)Nc1ccc(OCc2n[nH]c(=S)n2C)cc1 | Vero | = | 400 |
| CCn1c(COc2ccc(N)cc2)n[nH]c1=S | Vero | = | 80 |
| S=C(Nc1ccccc1)Nc1ccc(OCc2n[nH]c(=S)n2-c2ccccc2)cc1 | Vero | = | 80 |
| CCn1c(COc2ccc(NC(=S)NC)cc2)n[nH]c1=S | Vero | = | 400 |
| Nc1ncnc2c1ncn2C[C@H](O)CO [(S)-DHPA] | Vero | > | 400 |
